- Method: APR_HepG2_CellLoss_72hr: Apredica 72-hour HepG2 Assay for Cell Loss (AID 2282915)
- Cond: high-content imaging
Calls of active or inactive are those of the source. Rule for the calls: active = hit-call score of the fitted dose curve at least 0.9, where 1 is the maximum; inactive = score below 0.9.
Can you answer with just one of these options? true (1) = active, false (0) = inactive

Here are 5 molecules together with their reported answers.
[
  {
    "Molecule": "CCc1ccc(C(=O)NN(C(=O)c2cc(C)cc(C)c2)C(C)(C)C)cc1",
    "Answer Label": "true (1)"
  },
  {
    "Molecule": "CCN(CC)C(=O)SCc1ccc(Cl)cc1",
    "Answer Label": "false (0)"
  },
  {
    "Molecule": "O=C(Nc1ccccc1)Nc1cnns1",
    "Answer Label": "true (1)"
  },
  {
    "Molecule": "CCCN(CCC)c1c([N+](=O)[O-])cc(C(F)(F)F)cc1[N+](=O)[O-]",
    "Answer Label": "true (1)"
  },
  {
    "Molecule": "COP(=S)(OC)Oc1ccc([N+](=O)[O-])cc1",
    "Answer Label": "false (0)"
  }
]

Please look at the following molecule next.
Prompt: Tell me the recorded outcome of this test for O=C(NC(=O)c1c(F)cccc1F)Nc1ccc(OC(F)(F)C(F)OC(F)(F)F)c(Cl)c1 (stereo unspecified) .
Completion: false (0)
